Target: T1, monomeric recombinant human Notch3 extracellular domain (containing EGF like domains 1-11) fusion protein (human, UniProt Q9UM47 40-467)
T1 construct: domain: EGF like domains 1-11; also called monomeric rhNotch3
T1 sequence (looked up): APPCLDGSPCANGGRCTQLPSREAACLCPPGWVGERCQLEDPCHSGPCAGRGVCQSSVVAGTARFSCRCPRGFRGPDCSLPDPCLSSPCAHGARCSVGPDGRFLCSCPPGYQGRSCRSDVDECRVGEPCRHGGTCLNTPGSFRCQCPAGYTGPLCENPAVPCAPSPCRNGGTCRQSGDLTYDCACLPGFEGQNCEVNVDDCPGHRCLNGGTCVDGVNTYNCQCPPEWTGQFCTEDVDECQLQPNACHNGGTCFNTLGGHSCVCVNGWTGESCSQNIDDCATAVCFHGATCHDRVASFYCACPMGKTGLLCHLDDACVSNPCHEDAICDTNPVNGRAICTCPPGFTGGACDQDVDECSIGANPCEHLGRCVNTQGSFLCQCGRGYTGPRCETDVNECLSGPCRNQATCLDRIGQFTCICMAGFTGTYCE
Test: SPR BIAcore T100, antibody captured by anti-human IgG Fc, monomeric rhNotch3 analyte, 37 C
PROPERTY_MEASURED: koff (s⁻¹)
The reply should contain only the number, in s⁻¹.

[
  {
    "BINDER": "Hu4F11-71 (antibody, human IgG1, kappa, V domains shown, Humanized, human IgG1 kappa; Hv3-23 A28T T62S heavy + Kv2D-29 N28H kappa) VH: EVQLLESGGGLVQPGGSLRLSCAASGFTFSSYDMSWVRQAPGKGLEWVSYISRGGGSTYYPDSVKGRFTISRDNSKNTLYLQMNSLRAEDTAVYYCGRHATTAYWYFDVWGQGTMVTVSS VL: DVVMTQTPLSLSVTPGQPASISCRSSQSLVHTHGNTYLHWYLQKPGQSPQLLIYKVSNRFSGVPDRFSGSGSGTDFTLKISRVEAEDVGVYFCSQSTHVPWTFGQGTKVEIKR",
    "koff, s⁻¹": 0.0037
  },
  {
    "BINDER": "Hu4F11-77 (antibody, human IgG1, kappa, V domains shown, Humanized, human IgG1 kappa; Hv3-23 A28T S31N T62S heavy + Kv2D-29 N28Q kappa) VH: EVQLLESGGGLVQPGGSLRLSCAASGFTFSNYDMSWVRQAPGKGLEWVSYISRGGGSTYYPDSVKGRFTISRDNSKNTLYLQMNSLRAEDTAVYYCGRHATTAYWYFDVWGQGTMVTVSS VL: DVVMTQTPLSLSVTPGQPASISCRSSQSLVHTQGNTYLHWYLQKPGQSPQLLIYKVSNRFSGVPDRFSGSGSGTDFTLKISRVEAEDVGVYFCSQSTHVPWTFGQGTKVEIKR",
    "koff, s⁻¹": 0.0073
  },
  {
    "BINDER": "Hu4F11-78 (antibody, human IgG1, kappa, V domains shown, Humanized, human IgG1 kappa; Hv3-23 A28T S31H T62S heavy + Kv2D-29 N28Q kappa) VH: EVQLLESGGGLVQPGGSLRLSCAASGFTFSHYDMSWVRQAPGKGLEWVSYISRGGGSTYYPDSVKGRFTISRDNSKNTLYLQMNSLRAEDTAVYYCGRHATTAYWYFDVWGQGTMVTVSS VL: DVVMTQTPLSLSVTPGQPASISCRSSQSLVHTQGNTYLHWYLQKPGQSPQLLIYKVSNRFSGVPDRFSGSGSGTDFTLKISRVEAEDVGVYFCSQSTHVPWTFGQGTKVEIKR",
    "koff, s⁻¹": 0.0055
  },
  {
    "BINDER": "Hu4F11-73 (antibody, human IgG1, kappa, V domains shown, Humanized, human IgG1 kappa; Hv3-23 A28T S31N T62S heavy + Kv2D-29 N28Y kappa) VH: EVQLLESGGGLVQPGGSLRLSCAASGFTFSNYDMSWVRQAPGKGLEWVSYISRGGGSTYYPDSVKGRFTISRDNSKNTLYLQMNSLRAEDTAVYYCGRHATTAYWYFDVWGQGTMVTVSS VL: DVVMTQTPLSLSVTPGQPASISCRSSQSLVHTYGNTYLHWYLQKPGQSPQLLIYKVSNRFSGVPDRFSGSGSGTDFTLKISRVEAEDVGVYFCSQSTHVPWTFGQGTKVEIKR",
    "koff, s⁻¹": 0.0013
  }
]

Field: next binder
Q: Query koff for Hu4F11-70 (antibody, human IgG1, kappa, V domains shown, Humanized, human IgG1 kappa; Hv3-23 A28T S31H T62S heavy + Kv2D-29 N28H kappa) VH: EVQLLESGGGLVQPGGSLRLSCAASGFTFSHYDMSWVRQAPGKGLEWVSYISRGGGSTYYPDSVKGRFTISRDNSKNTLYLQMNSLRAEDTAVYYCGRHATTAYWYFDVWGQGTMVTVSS VL: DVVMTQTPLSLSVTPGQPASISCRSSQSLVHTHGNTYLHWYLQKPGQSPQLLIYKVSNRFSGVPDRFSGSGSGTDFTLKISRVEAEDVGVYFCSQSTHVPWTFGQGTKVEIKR
Ans: 0.0028
